Data origin, for the record: patent EP4725957A1

- Test system: Acinetobacter baumannii NCTC 13304 (OXA-27)
- Format: cell-based
- condition-info: NCTC 13304
Bridge positions count the residues as written; N and C are the ends. Square brackets hold non-standard residues; d marks the D form. Peptide text beside a SMILES is read from it. * marks the point of attachment. Heptanoyl(6-Me) = CC(C)CCCCC(=O)*; dOrn = NCCC[C@@H](N)C(=O)O; Nonanoyl = CCCCCCCCC(=O)*; X1 = CC[C@H](C)CCCCC(=O)*; Heptanoyl = CCCCCCC(=O)*; dDap = NC[C@@H](N)C(=O)O; Dab = NCC[C@H](N)C(=O)O; Dap = NC[C@H](N)C(=O)O
measured-parameter: MIC

// worked examples, MIC included
CC(C)CCCCC(=O)N[C@@H](CCN)C(=O)N[C@H](C(=O)N[C@H](CCCN)C(=O)N[C@H]1CCNC(=O)[C@H]([C@@H](C)O)NC(=O)[C@H](CCN)NC(=O)[C@H](CCN)NC(=O)[C@H]([C@@H](C)O)NC(=O)[C@@H](Cc2ccccc2)NC(=O)[C@H](CCN)NC1=O)[C@@H](C)O [Compound 22] ({Heptanoyl(6-Me)}-[Dab]T[dOrn][Dab][Dab][dF]T[Dab][Dab]T; lactam 4-C) : 0.06 µg/mL
CC[C@H](C)CCCCC(=O)N[C@@H](CCN)C(=O)N[C@H](C(=O)N[C@H](CN)C(=O)N[C@H]1CCNC(=O)[C@H]([C@@H](C)O)NC(=O)[C@H](CCN)NC(=O)[C@H](CCN)NC(=O)[C@H]([C@@H](C)O)NC(=O)[C@@H](Cc2ccccc2)NC(=O)[C@H](CCN)NC1=O)[C@@H](C)O [Compound 1] (X1-[Dab]T[dDap][Dab][Dab][dF]T[Dab][Dab]T; lactam 4-C) : ≤0.03 µg/mL
CCCCCCC(=O)N[C@@H](CCN)C(=O)N[C@H](C(=O)N[C@@H](CN)C(=O)N[C@H]1CCNC(=O)[C@H]([C@@H](C)O)NC(=O)[C@H](CCN)NC(=O)[C@H](CCN)NC(=O)[C@H](CC(C)C)NC(=O)[C@@H](Cc2ccccc2)NC(=O)[C@H](CCN)NC1=O)[C@@H](C)O [Compound 39] (Heptanoyl-[Dab]T[Dap][Dab][Dab][dF]L[Dab][Dab]T; lactam 4-C) : 0.03 µg/mL

Please look at the following molecule next.
Measured MIC (Acinetobacter baumannii NCTC 13304 (OXA-27)), entry CCCCCCCCC(=O)N[C@@H](CCN)C(=O)N[C@H](C(=O)N[C@@H](CN)C(=O)N[C@H]1CCNC(=O)[C@H]([C@@H](C)O)NC(=O)[C@H](CCN)NC(=O)[C@H](CCN)NC(=O)[C@H]([C@@H](C)O)NC(=O)[C@@H](Cc2ccccc2)NC(=O)[C@H](CCN)NC1=O)[C@@H](C)O [Compound 10] (Nonanoyl-[Dab]T[Dap][Dab][Dab][dF]T[Dab][Dab]T; lactam 4-C) : 0.06 µg/mL
